System: Sonic hedgehog protein (Shh)
Experiment: Sonic hedgehog microarray binding compounds – biochemical, small-molecule microarray, 635/667 nm fluorescence, primary screen (AID 1151);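 also: Shh protein binding to compounds spotted on small-molecule microarray slides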
Conditions: 635 nm fluorescence, higher = more signal
Label y when composite z-score is at or above 0.3; anything below gets n.

Reference set, count: 8
O=C1C2C=CC(C(O)CCc3ccccc3)N(Nc3ccccc3)C2C(=O)N1c1ccccc1 (centres undefined) = n
O=C1O[C@H](c2ccccc2)[C@H](c2ccccc2)N2[C@H]1[C@@H](C(=O)NC[C@H](O)c1ccccc1)[C@]1(C(=O)Nc3ccc(C#CC4=CCCCC4)cc31)[C@H]2c1ccc(O)cc1 = y
CCCC[C@@H]1C[C@H]1[C@@H](NC(=O)c1ccco1)c1ccccc1 = n
CCOC(=O)C[C@H]1[C@H](OC(=O)c2cc3ccccc3oc2=O)[C@@H](NC(=O)c2ccc3ccccc3c2)c2cc(OCCCO)ccc2N1C(=O)c1ccccc1 = y
C=CCOC(=O)[C@H]1[C@@H]2C(=O)O[C@@H](c3ccccc3)[C@@H](c3ccccc3)N2[C@@H](c2ccc(OCCOC(=O)[C@H]3C[C@H]4C(=O)N[C@@H](CCCC[N+](C)(C)C)C(=O)N4[C@H]3c3ccc(O)cc3)cc2)[C@]12C(=O)Nc1ccccc12 = y
O=C(NCC(F)(F)F)[C@@H]1c2ccccc2C(=O)N(Cc2ccccc2)[C@H]1c1ccc(CO)cc1 = n
CC1CC/C=C\[C@H]2OC34C=CCN(CCN5CCOCC5)C(=O)[C@H]3N(CCCCCO)C(=O)[C@@H]4C2C(=O)O1 (some centres undefined) = y
CN1C(=O)C2C(C1=O)C1C=C(c3ccc(CO)cc3)C2C(C2CC2)N1Cc1cc2c(cc1Br)OCO2 (centres undefined) = y

## Task Does the reported composite z-score for COC(=O)[C@@]1(Cc2ccc(OC)cc2)[C@H]2c3cc(C(=O)N(C)C)n(CCSCCO)c3C[C@H]2CN1C(=O)c1ccccc1 fall at or above the 0.3 mark?
## Result n

## Task Does the reported composite z-score for CN(C)CCCC[C@@H]1NC(=O)[C@@H]2C[C@H](C(=O)NCc3ccc(F)cc3)[C@H](c3cccc(OCCO)c3)N2C1=O fall at or above the 0.3 mark?
## Result y

Every entry's value here was drawn from PubChem BioAssay.
